- assayDetails: self-splicing fitness, log relative to wild type (ln ratio); higher = more splicing; Tetrahymena group I intron in knt gene, E. coli kanamycin selection, DiMSum; sequences stand for … in CUCUCU…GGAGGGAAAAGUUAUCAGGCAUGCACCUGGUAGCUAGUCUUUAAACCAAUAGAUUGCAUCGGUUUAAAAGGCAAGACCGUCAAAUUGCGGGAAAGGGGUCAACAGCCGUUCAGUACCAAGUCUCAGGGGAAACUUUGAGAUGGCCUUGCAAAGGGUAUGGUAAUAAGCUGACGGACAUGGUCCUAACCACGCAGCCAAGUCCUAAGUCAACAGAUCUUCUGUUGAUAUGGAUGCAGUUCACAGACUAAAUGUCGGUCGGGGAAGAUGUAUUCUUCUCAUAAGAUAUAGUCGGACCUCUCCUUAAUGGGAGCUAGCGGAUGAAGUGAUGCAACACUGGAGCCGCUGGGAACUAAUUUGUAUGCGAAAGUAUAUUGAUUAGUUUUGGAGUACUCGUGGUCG;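 note: selection with 25 µg/mL kanamycin versus none on LB agar overnight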
- runConditions: 30 °C
Form field: self-splicing fitness (ln) (one value per entry).
assayEndpoint: self-splicing fitness (ln)

sequenceentry=UCUGAGCAAUAUUACGUCCA value=-2.33
sequenceentry=UGGCAGCAAUAUUACGCAAC value=-2.74
sequenceentry=GAAAAGCAAUAUUACGUAUG value=-1.6
sequenceentry=GUCAAGCAAUAUUACGCCCA value=-1.4
sequenceentry=GCUUAGCAAUAUUACGCUAG value=-2.81
sequenceentry=UUUCAGCAAUAUUACGGACU value=-0.982
sequenceentry=AGUGAGCAAUAUUACGCCUC value=-1.98
sequenceentry=UUGUAGCAAUAUUACGUCAG value=-1.12
sequenceentry=GUUUAGCAAUAUUACGUAAC value=-2.2
sequenceentry=ACCCAGCAAUAUUACGGUUU value=-0.863
sequenceentry=UAGCAGCAAUAUUACGCGGG value=-2.24
sequenceentry=GGUUAGCAAUAUUACGUAGC value=-2.18
sequenceentry=ACCCAGCAAUAUUACGGAGA value=-0.451
sequenceentry=AGUAAGCAAUAUUACGUUUA value=-2.84
sequenceentry=GUGGAGCAAUAUUACGUCAC value=-3.5
sequenceentry=CAAAAGCAAUAUUACGCCCG value=-0.0339
sequenceentry=CACCAGCAAUAUUACGUGCU value=-3.4
sequenceentry=AUUAAGCAAUAUUACGCCCC value=-1.21
sequenceentry=ACAGAGCAAUAUUACGUUGU value=-3.88
sequenceentry=UGGGAGCAAUAUUACGAGGC value=-2.02
sequenceentry=UGGGAGCAAUAUUACGAGCU value=-3.52
sequenceentry=UCCGAGCAAUAUUACGCCUA value=-2.13
sequenceentry=AUUCAGCAAUAUUACGACAU value=0.206
sequenceentry=GCAUAGCAAUAUUACGCAAC value=-3.96
sequenceentry=UUGCAGCAAUAUUACGUAUA value=-1.32
sequenceentry=UCGUAGCAAUAUUACGUCUG value=-0.251
sequenceentry=UUCUAGCAAUAUUACGUUAA value=-2.15
sequenceentry=CCUGAGCAAUAUUACGGGAG value=-4.51
sequenceentry=CCUCAGCAAUAUUACGUCCU value=-4.39
sequenceentry=AUCCAGCAAUAUUACGAGGC value=-1.97
sequenceentry=GUGGAGCAAUAUUACGAACG value=-2.43
sequenceentry=UAGGAGCAAUAUUACGCGGC value=-2.42
sequenceentry=GAGAAGCAAUAUUACGGAUA value=-2.16
sequenceentry=AAAUAGCAAUAUUACGCAAC value=-3.16
sequenceentry=CACCAGCAAUAUUACGCCCU value=-4.12
sequenceentry=GCUUAGCAAUAUUACGAUGC value=-1.43
sequenceentry=GCAAAGCAAUAUUACGCAUA value=-1.86
sequenceentry=AGCCAGCAAUAUUACGGCGA value=-1.33
sequenceentry=CUGGAGCAAUAUUACGUGUG value=-1.53
sequenceentry=GGAAAGCAAUAUUACGUCAU value=-2.34
sequenceentry=AGACAGCAAUAUUACGGUAC value=-3.29
sequenceentry=UAAUAGCAAUAUUACGGUCA value=-0.412
sequenceentry=AAGUAGCAAUAUUACGACUG value=0.323
sequenceentry=CCCUAGCAAUAUUACGAUGU value=-3.58
sequenceentry=UUGUAGCAAUAUUACGGUGU value=-2.41
sequenceentry=GUGAAGCAAUAUUACGGUUU value=-2.86
sequenceentry=GCGUAGCAAUAUUACGUGAU value=-2.79
sequenceentry=GGAAAGCAAUAUUACGAUGG value=-3.14
sequenceentry=UGUCAGCAAUAUUACGAUUA value=-0.198
sequenceentry=GCUAAGCAAUAUUACGAGAG value=-2.38
sequenceentry=CAUUAGCAAUAUUACGAUAG value=-0.405
sequenceentry=UGUCAGCAAUAUUACGUGGU value=-4.15
sequenceentry=ACGUAGCAAUAUUACGGCGC value=-1.11
sequenceentry=CUUGAGCAAUAUUACGUGCU value=-1.93
sequenceentry=ACCAAGCAAUAUUACGGAGC value=-3.33
sequenceentry=ACUCAGCAAUAUUACGGCGU value=-0.555
sequenceentry=GUCUAGCAAUAUUACGUUCC value=-1.14
sequenceentry=GCGAAGCAAUAUUACGGACU value=-0.302
sequenceentry=UUGGAGCAAUAUUACGGUUU value=-3.38
sequenceentry=GGGAAGCAAUAUUACGUCUA value=0.132
sequenceentry=GUUGAGCAAUAUUACGGUAU value=-4.2
